Let's go through some recorded AC50 values for UniProt P08684 together.
Sequence (P08684 whole entry): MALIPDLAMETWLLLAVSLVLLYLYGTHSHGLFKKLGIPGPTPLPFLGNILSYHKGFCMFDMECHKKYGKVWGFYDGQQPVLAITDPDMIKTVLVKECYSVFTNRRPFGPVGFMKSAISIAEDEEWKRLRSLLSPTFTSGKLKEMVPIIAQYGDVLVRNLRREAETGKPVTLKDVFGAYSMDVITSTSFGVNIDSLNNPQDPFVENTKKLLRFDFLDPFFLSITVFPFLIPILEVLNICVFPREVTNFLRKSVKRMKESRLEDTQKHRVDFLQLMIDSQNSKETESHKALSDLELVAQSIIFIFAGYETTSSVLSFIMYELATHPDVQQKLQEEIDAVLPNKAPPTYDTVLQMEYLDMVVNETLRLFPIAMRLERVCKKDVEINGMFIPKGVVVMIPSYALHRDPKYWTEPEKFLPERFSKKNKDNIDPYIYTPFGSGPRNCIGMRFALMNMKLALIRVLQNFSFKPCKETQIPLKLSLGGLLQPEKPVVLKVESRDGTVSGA

N#Cc1ccc(C2=NC(C(F)(F)F)(C(F)(F)F)c3c(n(Cc4ccco4)c(=O)[nH]c3=O)N2)cc1 ... inconclusive
O=C(O)c1cccnc1C(=O)O ... inconclusive
CC(C)n1cnc2c(C(=O)N[C@H]3CN4CCC3CC4)cc(Cl)cc21 ... inconclusive
Cc1cc2ccccn2c1C(=O)c1ccc(Cl)cc1 ... inconclusive

The value of AC50 recorded for "C[C@](O)(c1ccccc1)c1nccc2ccccc12" when tested on UniProt P08684 reads inconclusive

====

Assay: Luminescence Cell-Based Dose Retest to Confirm Inhibitors of Cancer Stem Cells. [Related pubchem assays (depositor defined):AID2717, AID2721]
Assay type: functional, Homo sapiens
Conditions: Homo sapiens
Active and inactive are the calls of the source.
Kindly state AC50 for each of the entries shown.

Value of measured AC50 for the entry C=C(C)[C@@H]1CC[C@]2(C(=O)O)CC[C@]3(C)[C@H](CC[C@@H]4[C@@]5(C)CC[C@H](O)C(C)(C)[C@@H]5CC[C@]43C)[C@@H]12 [BETULINIC ACID] : 3.05 µM (active)

Value of measured AC50 for the entry "O=C(CSc1nc(O)c2c(C(F)(F)F)cc(-c3cccs3)nc2n1)Nc1ccc(F)c(F)c1" : 1.27 µM (active)

Value of measured AC50 for the entry "CCN(Cc1ccccc1)c1ccc(/C=N/N=C(N)N)cc1" : 2.61 µM (active)

Value of measured AC50 for the entry "Clc1ccc(-c2nnnn2-c2ccc(Cl)c(Cl)c2)cc1Cl" : 3.97 µM (active)

Value of measured AC50 for the entry "O=C(Nc1ccc(Cl)cc1)Nc1ccccc1Sc1ncc([N+](=O)[O-])s1" : 4.23 µM (active)

Value of measured AC50 for the entry "C=CCn1c(SCCC)nc2sc3c(c2c1=O)CCc1ccccc1-3" : 1.1 µM (active)

Value of measured AC50 for the entry "COc1cccc(-c2sc3ccc(OC)cc3c2C#CCCO)c1" : 2.79 µM (active)

Value of measured AC50 for the entry OC(COc1cccc2ccccc12)CN1CCN(c2ccc(Cl)cc2)CC1 (centres undefined) : 6.37 µM (active)

Value of measured AC50 for the entry "C=CCn1c(=O)c(C(=O)NCCc2ccccc2)c(O)c2ccccc21" : 5.39 µM (active)
